test.protocol: in vitro
condition.context: human, microsomes
Hi there, I'd appreciate the recorded CLint scaled for every entry that follows.
One number for each entry, in mL/min/kg.

>  <compound.smiles>
O=C(O)Cc1ccccc1Nc1c(Cl)cccc1Cl

>  <endpoint.unit>
mL/min/kg

>  <CLint scaled>
117

$$$$

Short answer for C[C@]12CC[C@H]3[C@@H](CCC4=CC(=O)CC[C@@]43C)[C@@H]1CC[C@@H]2O : CLint scaled was 79.7

* * *

test.protocol: Microsomal stability (MLM)
condition.context: CD-1, mouse, microsomes
value.kind: CLint scaled
Remember to follow the number with its unit.

Short answer for C[C@]12CC[C@H]3[C@@H](CCC4=CC(=O)CC[C@@]43C)[C@@H]1CC[C@@H]2O : CLint scaled was 1620 mL/min/kg

* * *

Tested on: LX-2 cells
test.protocol: Cytotoxicity, CellTiter-Glo cell viability assay
Format: cell-based, human
condition.context: 72 h
value.kind: CC50 (µM)
Answers are plain numbers, in µM.

>  <compound.smiles>
O=C(Nc1cccc(C(=O)N2CCN(c3ccnc4[nH]ccc34)C2)c1)c1cccc(C(F)(F)F)c1

>  <CC50 (µM)>
7.3

$$$$

Short answer for Cc1ccc2c(Nc3cccc(C(F)(F)F)c3)noc2c1C#Cc1cnc2cccnn12 : CC50 was 3.3

* * *

test.protocol: Microsomal stability (MLM)
condition.context: CD-1, mouse, microsomes
value.kind: half-life (min)
Answers are plain numbers, in min.

Short answer for C[C@]12CC[C@H]3[C@@H](CCC4=CC(=O)CC[C@@]43C)[C@@H]1CC[C@@H]2O [Testosterone, testosterone] : half-life was 3.4

* * *

tested.system: CYP2D6 (Homo sapiens, UniProt P10635)
Construct: from tissue; host or cells: human liver microsomes (HLM)
Sequence (P10635 whole entry): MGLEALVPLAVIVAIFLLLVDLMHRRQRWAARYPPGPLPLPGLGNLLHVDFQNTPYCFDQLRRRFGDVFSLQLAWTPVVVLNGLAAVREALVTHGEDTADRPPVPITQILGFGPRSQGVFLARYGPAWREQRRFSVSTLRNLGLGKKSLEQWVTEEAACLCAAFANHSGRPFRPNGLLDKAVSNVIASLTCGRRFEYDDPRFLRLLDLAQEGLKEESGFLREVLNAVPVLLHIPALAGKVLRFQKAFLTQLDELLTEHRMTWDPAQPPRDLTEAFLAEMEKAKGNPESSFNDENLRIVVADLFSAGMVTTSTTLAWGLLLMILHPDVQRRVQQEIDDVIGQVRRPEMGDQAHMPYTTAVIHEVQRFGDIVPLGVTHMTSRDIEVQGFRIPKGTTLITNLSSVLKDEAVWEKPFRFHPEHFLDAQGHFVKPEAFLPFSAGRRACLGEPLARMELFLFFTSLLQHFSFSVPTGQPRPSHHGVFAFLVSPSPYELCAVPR
test.protocol: Cytochrome inhibition in HLM
Type: in vitro ADME
value.kind: IC50 (µM)
One number for each entry, in µM.

Short answer for O=C(Nc1cccc(C(=O)N2CCN(c3ccnc4[nH]ccc34)C2)c1)c1cccc(C(F)(F)F)c1 : IC50 was 6.97

* * *

tested.system: CYP2C19 (Homo sapiens)
Construct: from tissue; host or cells: human liver microsomes (HLM)
Sequence (P33261 whole entry): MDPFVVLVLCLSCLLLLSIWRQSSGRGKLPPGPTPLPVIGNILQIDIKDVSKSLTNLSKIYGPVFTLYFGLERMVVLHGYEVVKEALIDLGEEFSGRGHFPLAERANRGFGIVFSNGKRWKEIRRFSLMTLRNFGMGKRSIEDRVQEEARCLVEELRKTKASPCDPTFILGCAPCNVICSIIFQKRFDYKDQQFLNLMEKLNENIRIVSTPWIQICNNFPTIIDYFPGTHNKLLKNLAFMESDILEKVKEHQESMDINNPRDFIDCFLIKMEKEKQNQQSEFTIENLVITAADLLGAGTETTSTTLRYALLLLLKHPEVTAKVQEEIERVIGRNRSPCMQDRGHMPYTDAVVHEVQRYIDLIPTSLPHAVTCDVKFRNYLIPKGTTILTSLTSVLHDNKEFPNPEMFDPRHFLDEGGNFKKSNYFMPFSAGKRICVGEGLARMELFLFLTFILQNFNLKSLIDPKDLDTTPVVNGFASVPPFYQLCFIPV
test.protocol: Cytochrome inhibition in HLM
Format: in vitro ADME
value.kind: IC50 (µM)
Numbers only, in µM.

Short answer for O=C(Nc1cccc(C(=O)N2CCN(c3ccnc4[nH]ccc34)C2)c1)c1cccc(C(F)(F)F)c1 : IC50 was 6.56

* * *

tested.system: hDDR1 (Homo sapiens, UniProt Q08345)
Sequence (Q08345 19-913): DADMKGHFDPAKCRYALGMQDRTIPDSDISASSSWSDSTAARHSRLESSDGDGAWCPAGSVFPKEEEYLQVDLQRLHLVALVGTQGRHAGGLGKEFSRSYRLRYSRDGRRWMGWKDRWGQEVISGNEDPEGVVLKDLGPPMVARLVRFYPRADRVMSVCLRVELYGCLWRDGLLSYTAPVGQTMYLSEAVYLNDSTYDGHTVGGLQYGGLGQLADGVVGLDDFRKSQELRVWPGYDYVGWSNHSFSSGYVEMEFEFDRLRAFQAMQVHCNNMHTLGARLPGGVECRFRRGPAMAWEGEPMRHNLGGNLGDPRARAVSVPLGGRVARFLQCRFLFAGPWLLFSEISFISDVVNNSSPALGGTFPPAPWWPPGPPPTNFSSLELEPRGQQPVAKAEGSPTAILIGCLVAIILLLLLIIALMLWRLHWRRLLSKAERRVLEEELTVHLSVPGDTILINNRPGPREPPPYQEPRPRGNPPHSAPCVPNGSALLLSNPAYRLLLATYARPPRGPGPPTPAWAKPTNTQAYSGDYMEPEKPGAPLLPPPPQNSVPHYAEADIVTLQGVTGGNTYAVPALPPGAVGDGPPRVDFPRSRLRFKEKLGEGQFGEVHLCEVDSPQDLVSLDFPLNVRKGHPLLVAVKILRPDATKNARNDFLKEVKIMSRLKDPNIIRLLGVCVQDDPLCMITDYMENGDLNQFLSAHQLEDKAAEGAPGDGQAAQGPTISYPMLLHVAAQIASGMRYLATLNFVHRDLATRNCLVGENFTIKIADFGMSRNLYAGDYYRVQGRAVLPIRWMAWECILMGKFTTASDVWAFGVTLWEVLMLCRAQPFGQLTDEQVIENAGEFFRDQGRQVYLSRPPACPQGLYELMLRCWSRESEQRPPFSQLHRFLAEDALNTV
test.protocol: Rescreen in another biochemical assay (Thermo Fisher-PR6913A)
condition.context: read-out: IC50 towards DDR1 kinase, rescreen
value.kind: IC50 (nM)
Numbers only, in nM.

Short answer for Cc1cc2[nH]c(-c3cc(CN(C)C)cc(C(F)(F)F)c3)nc2cc1C#Cc1cncnc1 [Compound 4] : IC50 was 156

* * *

test.protocol: in vitro
condition.context: SD, rat, microsomes
value.kind: CLint scaled
Remember to follow the number with its unit.

>  <compound.smiles>
O=C(O)Cc1ccccc1Nc1c(Cl)cccc1Cl

>  <CLint scaled>
106 mL/min/kg

$$$$

Short answer for C[C@]12CC[C@H]3[C@@H](CCC4=CC(=O)CC[C@@]43C)[C@@H]1CC[C@@H]2O : CLint scaled was 2360 mL/min/kg

* * *

tested.system: hDDR1 (Homo sapiens, UniProt Q08345)
test.protocol: KinaseProfiler radiometric biochemical kinase assay (Eurofins)
Parameters: purchased Eurofins 14-942KP10
condition.context: read-out: IC50, inhibition of DDR1 activity
value.kind: IC50 (nM)
Give bare numbers, in nM.

A selection of reference data follows.
>  <compound.smiles>
Cc1ccc(CNC(=O)Cc2cccc(F)c2)cc1-c1ccc2[nH]ncc2c1

>  <IC50 / nM>
1000

$$$$
>  <compound.smiles>
O=C(Nc1cccc(C(=O)N2CCN(c3ccnc4[nH]ccc34)C2)c1)c1cccc(C(F)(F)F)c1

>  <IC50 / nM>
21

$$$$

Here's the next entry for you.
Short answer for Cc1cc2[nH]c(-c3cc(CN(C)C)cc(C(F)(F)F)c3)nc2cc1C#Cc1cncnc1 : IC50 was 278

* * *

tested.system: CYP2C9 (Homo sapiens)
Construct: from tissue; host or cells: human liver microsomes (HLM)
Sequence (P11712 whole entry): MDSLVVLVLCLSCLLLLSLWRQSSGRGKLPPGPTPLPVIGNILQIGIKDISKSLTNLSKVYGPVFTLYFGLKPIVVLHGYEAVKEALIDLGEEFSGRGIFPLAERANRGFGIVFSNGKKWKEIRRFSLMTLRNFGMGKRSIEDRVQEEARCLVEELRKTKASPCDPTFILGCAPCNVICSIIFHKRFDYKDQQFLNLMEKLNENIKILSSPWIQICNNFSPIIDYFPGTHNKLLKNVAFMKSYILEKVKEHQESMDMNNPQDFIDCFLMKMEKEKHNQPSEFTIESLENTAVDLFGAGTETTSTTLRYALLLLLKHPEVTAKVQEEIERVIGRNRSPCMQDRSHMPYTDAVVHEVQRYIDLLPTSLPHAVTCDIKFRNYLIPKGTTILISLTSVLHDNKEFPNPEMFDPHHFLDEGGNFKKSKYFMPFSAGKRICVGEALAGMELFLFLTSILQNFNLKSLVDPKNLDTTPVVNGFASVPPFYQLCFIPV
test.protocol: Cytochrome inhibition in HLM
Assay type: in vitro ADME
value.kind: IC50 (nM)
Give bare numbers, in nM.

Short answer for O=C(Nc1cccc(C(=O)N2CCN(c3ccnc4[nH]ccc34)C2)c1)c1cccc(C(F)(F)F)c1 : IC50 was 2700

* * *

tested.system: hDDR2 (Homo sapiens, UniProt Q16832)
Sequence (Q16832 22-855): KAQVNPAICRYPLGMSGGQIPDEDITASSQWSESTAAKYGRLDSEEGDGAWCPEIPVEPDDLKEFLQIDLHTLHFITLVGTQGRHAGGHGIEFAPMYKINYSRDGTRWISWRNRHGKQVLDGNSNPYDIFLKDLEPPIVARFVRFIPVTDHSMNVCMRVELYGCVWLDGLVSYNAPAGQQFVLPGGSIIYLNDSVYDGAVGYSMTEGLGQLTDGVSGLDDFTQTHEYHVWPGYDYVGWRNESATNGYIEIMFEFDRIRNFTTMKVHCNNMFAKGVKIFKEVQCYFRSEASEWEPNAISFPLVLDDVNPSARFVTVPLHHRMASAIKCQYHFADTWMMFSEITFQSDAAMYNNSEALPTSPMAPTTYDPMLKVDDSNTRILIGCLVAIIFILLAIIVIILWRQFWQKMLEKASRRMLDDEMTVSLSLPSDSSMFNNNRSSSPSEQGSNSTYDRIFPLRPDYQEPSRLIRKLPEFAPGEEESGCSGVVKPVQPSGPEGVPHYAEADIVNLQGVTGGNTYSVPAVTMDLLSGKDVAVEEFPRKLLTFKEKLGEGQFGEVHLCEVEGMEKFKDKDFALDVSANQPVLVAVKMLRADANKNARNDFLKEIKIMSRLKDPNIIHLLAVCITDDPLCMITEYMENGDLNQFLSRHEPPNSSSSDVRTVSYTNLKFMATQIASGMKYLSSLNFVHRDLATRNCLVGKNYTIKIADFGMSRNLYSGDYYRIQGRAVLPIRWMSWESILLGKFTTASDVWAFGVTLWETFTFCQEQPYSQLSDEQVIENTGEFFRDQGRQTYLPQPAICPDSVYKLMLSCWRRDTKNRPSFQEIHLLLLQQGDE
value.kind: pIC50
Answers are plain numbers, as −log10 of the molar value.

# pIC50 measured on hDDR2 (Homo sapiens, UniProt Q16832) for item O=C(Nc1cccc(C(=O)N2CCN(c3ccnc4[nH]ccc34)C2)c1)c1cccc(C(F)(F)F)c1 [Compound 2] = 7.12

* * *

tested.system: CYP3A4-M (Homo sapiens)
Construct: from tissue; host or cells: human liver microsomes (HLM)
Sequence (P08684 whole entry): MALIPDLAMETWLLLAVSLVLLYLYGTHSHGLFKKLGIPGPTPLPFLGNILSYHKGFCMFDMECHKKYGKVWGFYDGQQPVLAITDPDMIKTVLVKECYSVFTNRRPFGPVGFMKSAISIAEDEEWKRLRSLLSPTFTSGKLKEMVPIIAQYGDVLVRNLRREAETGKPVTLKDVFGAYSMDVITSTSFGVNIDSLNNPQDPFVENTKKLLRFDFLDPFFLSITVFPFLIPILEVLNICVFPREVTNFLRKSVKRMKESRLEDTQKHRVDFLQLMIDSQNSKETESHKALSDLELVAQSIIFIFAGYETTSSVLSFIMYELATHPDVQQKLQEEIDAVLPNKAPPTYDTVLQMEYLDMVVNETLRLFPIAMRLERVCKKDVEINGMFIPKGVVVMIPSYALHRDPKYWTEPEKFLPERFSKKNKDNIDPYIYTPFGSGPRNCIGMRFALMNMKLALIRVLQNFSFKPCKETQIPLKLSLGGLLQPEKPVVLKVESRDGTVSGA
test.protocol: Cytochrome inhibition in HLM
Type: in vitro ADME
value.kind: IC50 (µM)
Answers are plain numbers, in µM.

Short answer for O=C(Nc1cccc(C(=O)N2CCN(c3ccnc4[nH]ccc34)C2)c1)c1cccc(C(F)(F)F)c1 : IC50 was 7.36
